# System: OVCAR3
# EXPERIMENT_NOTES: Colony formation assay (crystal violet, 14 days), OVCAR3
# Assay type: cell-based
# MEASUREMENT_CONTEXT: Homo sapiens, OVCAR-3, 336 h; OVCAR3, 50% colony formation inhibition, day 14
# Source text: In this assay, wild-type BRCA ovarian cancer cell lines OVCAR-3, OVCAR-5, SKOV3, NCI/ADR-RES, A2780, A2780 CR (carboplatin-resistant-inducing cell line) and OVC[…] (olaparib-resistant cell line) and mutation type BRCA1 ovarian cancer cell line, SNU-251, were used. […] After washing with PBS and sufficiently drying at room temperature, the number of stained colonies was counted and recorded using a microscope and the naked eye.
Below, each entry is listed alongside its reported IC50.
RESULT_TYPE: IC50 (nM)

| COMPOUND | RESULT_TYPE | EXPERIMENTAL_RESULT |
| --- | --- | --- |
| O=C(c1cc(Cc2n[nH]c(=O)c3ccccc23)ccc1F)N1CCN(C(=O)C2CC2)CC1 | IC50 | 2.39 |
| N#Cc1ccc(N2CCN(Cc3ccc4c5c(c(=O)[nH]c4c3)CCCN5)CC2)nc1 [citrate of the compound of Formula I] | IC50 | 2.08 |
| NC(=O)c1cccc2cn(-c3ccc([C@@H]4CCCNC4)cc3)nc12 | IC50 | 72.8 |

###

# STUDY_SYSTEM: P-gp (Homo sapiens, UniProt P08183)
# Construct: endogenous in cells; host or cells: CaCO2 (Caco-2) cells, 21-day transwell monolayer
# Sequence (P08183 whole entry): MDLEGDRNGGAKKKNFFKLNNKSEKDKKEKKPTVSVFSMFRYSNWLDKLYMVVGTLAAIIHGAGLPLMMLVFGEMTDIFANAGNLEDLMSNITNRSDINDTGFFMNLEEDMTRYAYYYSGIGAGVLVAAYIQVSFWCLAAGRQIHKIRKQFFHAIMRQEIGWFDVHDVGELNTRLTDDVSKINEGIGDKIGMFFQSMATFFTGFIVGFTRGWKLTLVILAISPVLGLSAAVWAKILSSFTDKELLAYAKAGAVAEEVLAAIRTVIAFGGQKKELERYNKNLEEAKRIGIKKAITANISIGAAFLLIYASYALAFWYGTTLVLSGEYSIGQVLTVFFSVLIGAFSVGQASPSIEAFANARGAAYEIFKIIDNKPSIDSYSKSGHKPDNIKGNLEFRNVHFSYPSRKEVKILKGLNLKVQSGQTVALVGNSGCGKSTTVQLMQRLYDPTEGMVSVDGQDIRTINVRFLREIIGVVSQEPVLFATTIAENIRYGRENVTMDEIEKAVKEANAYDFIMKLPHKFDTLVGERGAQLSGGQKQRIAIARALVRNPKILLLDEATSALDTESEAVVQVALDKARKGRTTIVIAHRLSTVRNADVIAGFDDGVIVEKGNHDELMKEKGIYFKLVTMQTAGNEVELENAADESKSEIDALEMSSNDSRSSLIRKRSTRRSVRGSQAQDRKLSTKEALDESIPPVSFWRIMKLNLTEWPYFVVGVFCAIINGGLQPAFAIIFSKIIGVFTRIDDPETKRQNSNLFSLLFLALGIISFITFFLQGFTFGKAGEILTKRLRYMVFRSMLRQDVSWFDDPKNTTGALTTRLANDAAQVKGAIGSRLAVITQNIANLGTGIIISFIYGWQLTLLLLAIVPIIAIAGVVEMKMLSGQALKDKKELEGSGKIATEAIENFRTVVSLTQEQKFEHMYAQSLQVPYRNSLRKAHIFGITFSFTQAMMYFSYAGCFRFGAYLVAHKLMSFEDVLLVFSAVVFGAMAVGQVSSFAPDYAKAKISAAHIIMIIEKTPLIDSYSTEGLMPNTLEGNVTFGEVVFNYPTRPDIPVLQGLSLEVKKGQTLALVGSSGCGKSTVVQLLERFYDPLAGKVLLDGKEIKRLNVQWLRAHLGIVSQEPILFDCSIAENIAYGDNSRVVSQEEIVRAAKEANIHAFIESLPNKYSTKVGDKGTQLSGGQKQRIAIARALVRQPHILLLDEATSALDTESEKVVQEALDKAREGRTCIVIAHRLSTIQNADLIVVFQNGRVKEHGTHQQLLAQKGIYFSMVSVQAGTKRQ
# EXPERIMENT_NOTES: Permeability study in CaCO2 cells, efflux ratio by P-gp
# Format: in vitro ADME
# MEASUREMENT_CONTEXT: human, Caco-2; 10 μM, CaCO2 cells

| COMPOUND | STUDY_SYSTEM | Papp A→B at 180 min, 10 μM [×10⁻⁶ cm/s] |
| --- | --- | --- |
| N#Cc1ccc(N2CCN(Cc3ccc4c5c(c(=O)[nH]c4c3)CCCN5)CC2)nc1 [citrate of the compound of Formula I] | P-gp (Homo sapiens, UniProt P08183) | 18.1 |

###

# STUDY_SYSTEM: P-gp (Homo sapiens)
# Construct: endogenous in cells; host or cells: CaCO2 (Caco-2) cells, 21-day transwell monolayer
# EXPERIMENT_NOTES: Permeability study in CaCO2 cells, efflux ratio by P-gp
# Type: in vitro ADME
# MEASUREMENT_CONTEXT: human, Caco-2; 1 μM, CaCO2 cells; read-out: Efflux ratio (B→A/A→B)

| MOLECULE | efflux ratio at 1 μM |
| --- | --- |
| N#Cc1ccc(N2CCN(Cc3ccc4c5c(c(=O)[nH]c4c3)CCCN5)CC2)nc1 [citrate of the compound of Formula I] | 2.23 |

###

# STUDY_SYSTEM: P-gp (Homo sapiens, UniProt P08183)
# Construct: endogenous in cells; host or cells: CaCO2 (Caco-2) cells, 21-day transwell monolayer
# EXPERIMENT_NOTES: Permeability study in CaCO2 cells, efflux ratio by P-gp
# Assay type: in vitro ADME
# MEASUREMENT_CONTEXT: 10 μM, CaCO2 cells
# Procedure: A permeability study was conducted to measure the efflux ratio of the citrate of the compound of Formula I and olaparib (AZD-2281). 200 μL of a culture medium in which the number of CaCO2 cells is 5×10^4/well per each insert was dispensed on the apical side of a transwell insert having a diameter of 6.5 mm in a 24-well plate. […] Samples of 100 μL taken from each supernatant or basolateral portion were analyzed at the specified times, 0, 30, 60, 120, and 180 minutes.
RESULT_TYPE: Papp A→B (×10⁻⁶ cm/s)

| STRUCTURE_SMILES | STUDY_SYSTEM | RESULT_TYPE | UNIT_OF_MEASUREMENT | EXPERIMENTAL_RESULT |
| --- | --- | --- | --- | --- |
| O=C(c1cc(Cc2n[nH]c(=O)c3ccccc23)ccc1F)N1CCN(C(=O)C2CC2)CC1 | P-gp (Homo sapiens, UniProt P08183) | Papp A→B | ×10⁻⁶ cm/s | 1.7 |
